target: murine IL-2Rβ (mIL-2Rβ) (mouse) (UniProt P16297); assay: SPR; mIL-2Rβ immobilised
Would you kindly list Kd for each of these binders?
Answer in nM, number only, no unit symbol.

Challenge: Need Kd, item G1_neo2_40_1F_M3 (designed binder) STEKTQHAAEDALRDALMLRNLLNEPNEKLARIITTMQSWQFTEKIDGDGAQELAKEVEELQQEHEVRGIDVEDYASNLKVILLQLA
Response given: 402

Challenge: Need Kd, item G1_neo2_40_1F_M1 (designed binder) STEKTQLAAEHALRDALMLKHLLNEPNEKLARIITTMQSWQFTGKIDGDGAQELAKEVEELQQEHEVRGIDVEDYASNLKVILLHLA
Response given: 214

Challenge: Need Kd, item G1_neo2_40_1F_H2 (designed binder) STKKTQLLLEHALLDALHMRRNLPEPNEKLSRIITTMQSWIFTGKIDGDGAQELAKEVEELEQEHEKRGRDVEDDASNLKVILLELA
Response given: 68300
